# ASSAY_COMMENT: Cytotoxicity against african green monkey Vero C1008 cells after 72 hrs by MTT assay
# Type: cell-based
# MEASUREMENT_PARAMETERS: chlorocebus sabaeus
Record form. Attribute: CC50 at 72 h. Fill in for each entry.
Numbers only, in µM.

These solved cases illustrate the format of a correct answer.
| MOL_SMILES | RECORDED_ENDPOINT | DISPLAY_UNIT | OBS_VALUE |
| --- | --- | --- | --- |
| COc1ccc(/C=C/C(=O)Nc2nnc(-c3ccccc3)[nH]2)cc1 | CC50 at 72 h | µM | 1280 |
| O=C(/C=C/c1ccc(O)cc1)Nc1nnc(-c2ccccc2)[nH]1 | CC50 at 72 h | µM | 1850 |
| O=C(/C=C/c1ccc([N+](=O)[O-])s1)Nc1nnc(-c2ccccc2)[nH]1 | CC50 at 72 h | µM | 1670 |
| O=C(/C=C/c1ccc2c(c1)COC2)Nc1nnc(-c2ccccc2)[nH]1 | CC50 at 72 h | µM | 1820 |

Could you now look at the following molecule, please?
molecule O=C(/C=C/c1ccc(OC(F)(F)F)cc1)Nc1nnc(-c2ccccc2)[nH]1 , CC50 at 72 h observed: 1560

Entry source: ChEMBL document CHEMBL1914372
